The measured values listed here are drawn from paper PMC6706138.

# assay.target: OR8D1 (Homo sapiens, UniProt Q8WZ84)
# Construct: full coding region amplified from human genomic DNA, N-terminal IL-6-HaloTag kept, transient in NxG 108CC15 cells with RTP1S, G-alpha-olf, G-gamma-13, GloSensor-22F
# Sequence (Q8WZ84 whole entry): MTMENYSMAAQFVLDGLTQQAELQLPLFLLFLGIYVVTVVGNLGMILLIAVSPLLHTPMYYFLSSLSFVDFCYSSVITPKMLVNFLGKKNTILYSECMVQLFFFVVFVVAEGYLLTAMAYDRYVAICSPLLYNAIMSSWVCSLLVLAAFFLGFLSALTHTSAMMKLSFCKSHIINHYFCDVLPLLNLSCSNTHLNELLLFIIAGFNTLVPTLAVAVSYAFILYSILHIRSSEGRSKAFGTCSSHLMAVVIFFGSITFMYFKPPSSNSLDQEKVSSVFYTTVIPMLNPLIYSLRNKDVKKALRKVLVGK
# test.protocol: GloSensor cAMP luminescence
property.label: pEC50
Please express pEC50 as -log10 of the molar concentration.

Quickly give me recorded pEC50 for CC1=C(O)C(=O)OC1C (stereo not shown) 5.74

---

# assay.target: Olfr16 (Mus musculus, UniProt Q62007)
# Construct: full coding region amplified from mouse genomic DNA, N-terminal IL-6-HaloTag kept, transient in NxG 108CC15 cells with RTP1S, G-alpha-olf, G-gamma-13, GloSensor-22F
# Sequence (Q62007 whole entry): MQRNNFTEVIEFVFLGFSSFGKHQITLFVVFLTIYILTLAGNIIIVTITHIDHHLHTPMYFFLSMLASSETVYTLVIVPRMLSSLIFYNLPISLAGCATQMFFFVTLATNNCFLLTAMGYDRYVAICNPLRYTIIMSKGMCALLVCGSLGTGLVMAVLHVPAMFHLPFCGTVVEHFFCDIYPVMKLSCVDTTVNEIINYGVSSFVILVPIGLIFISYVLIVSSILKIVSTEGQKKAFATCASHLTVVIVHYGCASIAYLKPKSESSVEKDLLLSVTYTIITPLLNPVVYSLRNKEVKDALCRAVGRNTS
# test.protocol: GloSensor cAMP luminescence
# experimental.parameters: read-out: IL-6-HaloTag®-receptor / EC50
property.label: pEC50
Please express pEC50 as -log10 of the molar concentration.

Quickly give me recorded pEC50 for CC(C)(O)CCCC1=CCC(C=O)CC1 (stereo not shown) [lyral] 4.47
